Numbers sourced from ChEMBL document CHEMBL1201862.

Recorded GI50 by entry
Test system: CCRF-CEM
Test: NCI tumour cell line growth inhibition, 48 h
Calls of active or inactive are those of the source. Rule as the data show it: active = GI50 up to about 1.1 µM and inactive = higher.

Here are 2 molecules together with their reported answers.
Molecule | Endpoint Result
CC(=O)c1c2c(cc3c1CC1(C3)Cc3cc4c(c(C(=O)O)c3C1)CCC4)CCC2 (stereo not drawn) | 27.7 µM (inactive)
CC(C)CC1C(=O)OC(C)(C)OC1=O | > 100 µM (inactive)

# evaluate next
Problem: Need GI50, item C/C(CC(=O)Nc1cccc([N+](=O)[O-])c1)=N\NC(=O)CC#N
Solution: > 100 µM (inactive)

====

Tested on: RPMI-8226
Test: NCI tumour cell line growth inhibition, 48 h
Activity calls are given as the source filed them. Rule as the data show it: active = GI50 up to about 1.1 µM and inactive = higher.
Metric: GI50

Compound | GI50
CCOc1ccccc1NC(=O)CCc1nnc2s/c(=C\CCc3ccccc3)c(=O)n12 | > 100 µM (inactive)

Problem: Need GI50, item COC(=O)[C@](NC(=O)OCc1ccccc1)([C@@H](C)[S+]([O-])c1ccc(C)cc1)C(F)(F)F (stereo not given in full)
Solution: 26.5 µM (inactive)

Problem: Again, but for O=S1(=O)C[C@@H](O)[C@H](O)CS1
Solution: > 100 µM (inactive)

Problem: Again, but for CCCCCCCCOc1ccc(/C=C/C2=[N+](CCO)CCO2)cc1
Solution: 2.2 µM (inactive)

Problem: Again, but for CCCCCCCCCOCC(COP(=O)([O-])OCC[N+](C)(C)C)OC (stereo not given)
Solution: > 100 µM (inactive)
